target: Histone-lysine N-methyltransferase PRDM9 (Homo sapiens) (UniProt Q9NQV7); assay: Inhibition of PRDM9 (unknown origin) using biotin-labeled histone substrate assessed as residual activity at 50 uM in presence of [3H-Me]SAM by scintillation proximity assay relative to control
Sequence (Q9NQV7 whole entry): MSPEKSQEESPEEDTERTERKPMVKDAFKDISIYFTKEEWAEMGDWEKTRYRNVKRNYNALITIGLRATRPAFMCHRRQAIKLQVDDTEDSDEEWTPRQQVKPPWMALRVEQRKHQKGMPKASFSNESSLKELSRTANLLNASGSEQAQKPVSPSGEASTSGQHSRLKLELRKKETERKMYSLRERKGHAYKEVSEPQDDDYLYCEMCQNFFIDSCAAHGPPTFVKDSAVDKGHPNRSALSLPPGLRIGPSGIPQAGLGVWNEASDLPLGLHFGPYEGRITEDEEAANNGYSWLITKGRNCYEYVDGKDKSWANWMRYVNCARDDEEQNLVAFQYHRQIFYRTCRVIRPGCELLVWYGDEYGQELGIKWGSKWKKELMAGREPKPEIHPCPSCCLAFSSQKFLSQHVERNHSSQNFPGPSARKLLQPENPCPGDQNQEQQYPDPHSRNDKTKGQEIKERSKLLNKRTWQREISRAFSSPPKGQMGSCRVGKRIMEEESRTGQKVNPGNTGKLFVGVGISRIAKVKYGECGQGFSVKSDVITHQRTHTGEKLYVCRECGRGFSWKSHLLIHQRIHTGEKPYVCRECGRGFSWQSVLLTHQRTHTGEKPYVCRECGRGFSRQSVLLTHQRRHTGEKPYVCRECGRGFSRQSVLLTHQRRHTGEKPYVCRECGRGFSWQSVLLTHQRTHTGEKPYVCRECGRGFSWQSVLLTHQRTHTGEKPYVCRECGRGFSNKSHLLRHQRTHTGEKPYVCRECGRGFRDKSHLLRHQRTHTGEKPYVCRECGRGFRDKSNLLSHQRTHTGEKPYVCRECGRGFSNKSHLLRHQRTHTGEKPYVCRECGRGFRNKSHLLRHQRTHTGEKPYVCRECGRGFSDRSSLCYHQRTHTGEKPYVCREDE
Reported metric: Activity (%)

Molecule: O=C(c1cccc(Br)c1)N1CCC[C@@H]2CNC[C@@H]21
System: Histone-lysine N-methyltransferase PRDM9 (Homo sapiens) (UniProt Q9NQV7)
Activity (%): 102
--
Molecule: CN1CCC2(CC1)CCN(C(=O)c1cccc(Br)c1)CC2
System: Histone-lysine N-methyltransferase PRDM9 (Homo sapiens) (UniProt Q9NQV7)
Activity (%): 106
--
Molecule: CN1CCCC2(CCCN(C(=O)c3cccc(Br)c3)C2)C1 (centres undefined)
System: Histone-lysine N-methyltransferase PRDM9 (Homo sapiens) (UniProt Q9NQV7)
Activity (%): 93
--
Molecule: O=C(c1cccc(Br)c1)N1CC[C@H]2NCC[C@H]2C1
System: Histone-lysine N-methyltransferase PRDM9 (Homo sapiens) (UniProt Q9NQV7)
Activity (%): 109
--
Molecule: CN1CCCCC12CCN(C(=O)c1cccc(Br)c1)CC2
System: Histone-lysine N-methyltransferase PRDM9 (Homo sapiens) (UniProt Q9NQV7)
Activity (%): 105
--
Molecule: O=C(c1cccc(Br)c1)N1CCC2CNCC2C1 (centres undefined)
System: Histone-lysine N-methyltransferase PRDM9 (Homo sapiens) (UniProt Q9NQV7)
Activity (%): 108
--
Molecule: CN1CCCC12CCN(C(=O)c1cccc(Br)c1)CC2
System: Histone-lysine N-methyltransferase PRDM9 (Homo sapiens) (UniProt Q9NQV7)
Activity (%): 107
--
Molecule: C[N+]1(C)CCCCC12CCN(C(=O)c1cccc(Br)c1)CC2
System: Histone-lysine N-methyltransferase PRDM9 (Homo sapiens) (UniProt Q9NQV7)
Activity (%): 107
--
Molecule: O=C(c1cccc(Br)c1)N1CCCC2(CCNCC2)C1
System: Histone-lysine N-methyltransferase PRDM9 (Homo sapiens) (UniProt Q9NQV7)
Activity (%): 98
--
Molecule: O=C(c1cccc(Br)c1)N1C[C@@H]2CCN[C@@H]2C1
System: Histone-lysine N-methyltransferase PRDM9 (Homo sapiens) (UniProt Q9NQV7)
Activity (%): 107
--
Molecule: O=C(c1cccc(Br)c1)N1CCC2(CCNCC2)CC1
System: Histone-lysine N-methyltransferase PRDM9 (Homo sapiens) (UniProt Q9NQV7)
Activity (%): 105
--
Molecule: CN1CCCC12CCCN(C(=O)c1cccc(Br)c1)C2 (centres undefined)
System: Histone-lysine N-methyltransferase PRDM9 (Homo sapiens) (UniProt Q9NQV7)
Activity (%): 108
--
Molecule: CN1C[C@H]2CCCN(C(=O)c3cccc(Br)c3)[C@H]2C1
System: Histone-lysine N-methyltransferase PRDM9 (Homo sapiens) (UniProt Q9NQV7)
Activity (%): 103
--
Molecule: CN1CCC2(CCCN2C(=O)c2cccc(Br)c2)CC1
System: Histone-lysine N-methyltransferase PRDM9 (Homo sapiens) (UniProt Q9NQV7)
Activity (%): 98
--
Molecule: CN1CCCCC12CCCN(C(=O)c1cccc(Br)c1)C2 (centres undefined)
System: Histone-lysine N-methyltransferase PRDM9 (Homo sapiens) (UniProt Q9NQV7)
Activity (%): 111
--
Molecule: O=C(c1cccc(Br)c1)N1C[C@H]2CCCN[C@H]2C1
System: Histone-lysine N-methyltransferase PRDM9 (Homo sapiens) (UniProt Q9NQV7)
Activity (%): 108
--
Molecule: O=C(c1cccc(Br)c1)N1CC[C@@H]2[C@@H](CC3CCCCN32)C1 (some centres undefined)
System: Histone-lysine N-methyltransferase PRDM9 (Homo sapiens) (UniProt Q9NQV7)
Activity (%): 101
--
Molecule: CN1CC[C@H]2CN(C(=O)c3cccc(Br)c3)C[C@H]21
System: Histone-lysine N-methyltransferase PRDM9 (Homo sapiens) (UniProt Q9NQV7)
Activity (%): 106
--
Molecule: CN1CCC[C@@H]2CN(C(=O)c3cccc(Br)c3)C[C@@H]21
System: Histone-lysine N-methyltransferase PRDM9 (Homo sapiens) (UniProt Q9NQV7)
Activity (%): 104
--
Molecule: O=C(c1cccc(Br)c1)N1C[C@@H]2CC3CCCN3[C@@H]2C1 (some centres undefined)
System: Histone-lysine N-methyltransferase PRDM9 (Homo sapiens) (UniProt Q9NQV7)
Activity (%): 97
--
Molecule: O=C(c1cccc(Br)c1)N1C[C@@H]2CC3CCCCN3[C@@H]2C1 (some centres undefined)
System: Histone-lysine N-methyltransferase PRDM9 (Homo sapiens) (UniProt Q9NQV7)
Activity (%): 107
--
Molecule: CN1CCCC2(CCCN2C(=O)c2cccc(Br)c2)C1 (centres undefined)
System: Histone-lysine N-methyltransferase PRDM9 (Homo sapiens) (UniProt Q9NQV7)
Activity (%): 94
--
Molecule: CN1CCC2(CCCN(C(=O)c3cccc(Br)c3)C2)C1 (centres undefined)
System: Histone-lysine N-methyltransferase PRDM9 (Homo sapiens) (UniProt Q9NQV7)
Activity (%): 103
--
Molecule: O=C(c1cccc(Br)c1)N1CCCC2(CCCCN2)C1 (centres undefined)
System: Histone-lysine N-methyltransferase PRDM9 (Homo sapiens) (UniProt Q9NQV7)
Activity (%): 101
